Data origin, for the record: ChEMBL document CHEMBL4806968

# pIC50 listing for each entry below
Target: Homeodomain-interacting protein kinase 4 (Homo sapiens)
Sequence (Q8NE63 whole entry): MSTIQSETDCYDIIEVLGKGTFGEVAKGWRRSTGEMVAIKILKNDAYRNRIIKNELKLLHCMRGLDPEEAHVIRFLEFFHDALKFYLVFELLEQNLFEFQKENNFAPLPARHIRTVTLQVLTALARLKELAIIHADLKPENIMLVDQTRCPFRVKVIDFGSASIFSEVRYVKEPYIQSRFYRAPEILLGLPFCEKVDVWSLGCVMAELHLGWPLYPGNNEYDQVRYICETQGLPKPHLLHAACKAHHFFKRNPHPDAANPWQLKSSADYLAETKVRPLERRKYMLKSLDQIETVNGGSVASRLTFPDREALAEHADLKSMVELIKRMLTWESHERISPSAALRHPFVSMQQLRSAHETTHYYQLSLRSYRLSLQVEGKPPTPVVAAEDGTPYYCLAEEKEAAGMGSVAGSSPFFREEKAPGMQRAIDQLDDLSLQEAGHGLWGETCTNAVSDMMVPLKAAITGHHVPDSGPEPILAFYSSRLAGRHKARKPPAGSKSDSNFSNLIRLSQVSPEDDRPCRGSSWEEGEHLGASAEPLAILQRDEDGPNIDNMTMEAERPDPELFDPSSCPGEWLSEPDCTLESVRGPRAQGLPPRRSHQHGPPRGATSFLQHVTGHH
Assay: Inhibition of HIPK4 (unknown origin)
In textbook form, pIC50 equals minus log to base ten of the concentration in mol/L.

Structure Notation: CSc1nc(C(=O)Nc2ccc(Oc3cc4cnn(C)c4cc3Br)cc2)c(-c2ccc(F)cc2)o1
Assay Target: Homeodomain-interacting protein kinase 4 (Homo sapiens)
pIC50: 7.49

Homeodomain-interacting protein kinase 4 (Homo sapiens) / pIC50 / "CNC(=O)c1cc(Oc2ccc(NC(=O)c3nc(SC)n(CCN(C)C)c3-c3ccc(F)cc3)cc2)ccn1" : value?
7.64

Homeodomain-interacting protein kinase 4 (Homo sapiens) / pIC50 / "CNC(=O)c1cc(Oc2ccc(NC(=O)c3nc(NC)sc3-c3ccc(F)cc3)cc2)ccn1" : value?
8.28

Homeodomain-interacting protein kinase 4 (Homo sapiens) / pIC50 / "CNC(=O)c1cc(Oc2ccc(NC(=O)c3nc(SC)oc3-c3ccc(F)cc3)cc2)ccn1" : value?
8.48

Homeodomain-interacting protein kinase 4 (Homo sapiens) / pIC50 / "CNC(=O)c1cc(Oc2ccc(NC(=O)c3nc(C(F)(F)F)sc3-c3ccc(F)cc3)cc2)ccn1" : value?
8.02

Homeodomain-interacting protein kinase 4 (Homo sapiens) / pIC50 / "CNC(=O)c1cc(Oc2ccc(NC(=O)c3nc(SC)[nH]c3-c3ccc(F)cc3)cc2)ccn1" : value?
7.72

Homeodomain-interacting protein kinase 4 (Homo sapiens) / pIC50 / "CNC(=O)c1cc(Oc2ccc(NC(=O)c3nc(S(C)(=O)=O)sc3-c3ccc(F)cc3)cc2)ccn1" : value?
8.29

---

Molecular target: Receptor-interacting serine/threonine-protein kinase 2 (Homo sapiens) (UniProt O43353)
Sequence (O43353 whole entry): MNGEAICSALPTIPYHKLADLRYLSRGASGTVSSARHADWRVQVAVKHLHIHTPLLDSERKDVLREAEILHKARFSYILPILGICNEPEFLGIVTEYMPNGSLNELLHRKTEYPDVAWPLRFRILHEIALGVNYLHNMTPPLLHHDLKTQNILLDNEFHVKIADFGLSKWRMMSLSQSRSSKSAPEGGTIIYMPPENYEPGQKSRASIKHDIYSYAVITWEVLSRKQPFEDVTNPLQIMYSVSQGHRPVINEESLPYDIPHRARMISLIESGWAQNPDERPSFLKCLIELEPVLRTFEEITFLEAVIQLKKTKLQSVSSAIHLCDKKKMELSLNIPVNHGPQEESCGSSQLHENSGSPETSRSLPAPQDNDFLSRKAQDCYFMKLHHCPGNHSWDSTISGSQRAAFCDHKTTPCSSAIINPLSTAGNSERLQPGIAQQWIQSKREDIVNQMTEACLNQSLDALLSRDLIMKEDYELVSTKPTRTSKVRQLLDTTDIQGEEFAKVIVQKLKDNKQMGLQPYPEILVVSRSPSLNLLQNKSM
Assay: Inhibition of RIPK2 (unknown origin) at 0.5 uM relative to control
Quantity: inhibition (%)
Express your answer in %, writing the number without its unit.

Structure Notation: CNC(=O)c1cc(Oc2ccc(NC(=O)c3nc(SC)oc3-c3ccc(F)cc3)cc2F)ccn1
Unit Of Measurement: %
Meas Value: 51
//
Structure Notation: CNC(=O)c1cc(Oc2ccc(NC(=O)c3nc(NC)sc3-c3ccc(F)cc3)cc2)ccn1
Unit Of Measurement: %
Meas Value: 40
//
Structure Notation: CNC(=O)c1cc(Oc2ccc(NC(=O)c3n[nH]nc3-c3ccc(F)cc3)cc2)ccn1
Unit Of Measurement: %
Meas Value: 65

Attention now turns to another entry.
Receptor-interacting serine/threonine-protein kinase 2 (Homo sapiens) (UniProt O43353) / inhibition / "CNC(=O)c1cc(Oc2ccc(NC(=O)c3nc(SC)oc3-c3ccc(F)cc3)cc2)ccn1" : value?
63

---

# inhibition listing for each entry below
Biological target: Muscle, skeletal receptor tyrosine-protein kinase (Homo sapiens) (UniProt O15146)
Sequence (O15146 whole entry): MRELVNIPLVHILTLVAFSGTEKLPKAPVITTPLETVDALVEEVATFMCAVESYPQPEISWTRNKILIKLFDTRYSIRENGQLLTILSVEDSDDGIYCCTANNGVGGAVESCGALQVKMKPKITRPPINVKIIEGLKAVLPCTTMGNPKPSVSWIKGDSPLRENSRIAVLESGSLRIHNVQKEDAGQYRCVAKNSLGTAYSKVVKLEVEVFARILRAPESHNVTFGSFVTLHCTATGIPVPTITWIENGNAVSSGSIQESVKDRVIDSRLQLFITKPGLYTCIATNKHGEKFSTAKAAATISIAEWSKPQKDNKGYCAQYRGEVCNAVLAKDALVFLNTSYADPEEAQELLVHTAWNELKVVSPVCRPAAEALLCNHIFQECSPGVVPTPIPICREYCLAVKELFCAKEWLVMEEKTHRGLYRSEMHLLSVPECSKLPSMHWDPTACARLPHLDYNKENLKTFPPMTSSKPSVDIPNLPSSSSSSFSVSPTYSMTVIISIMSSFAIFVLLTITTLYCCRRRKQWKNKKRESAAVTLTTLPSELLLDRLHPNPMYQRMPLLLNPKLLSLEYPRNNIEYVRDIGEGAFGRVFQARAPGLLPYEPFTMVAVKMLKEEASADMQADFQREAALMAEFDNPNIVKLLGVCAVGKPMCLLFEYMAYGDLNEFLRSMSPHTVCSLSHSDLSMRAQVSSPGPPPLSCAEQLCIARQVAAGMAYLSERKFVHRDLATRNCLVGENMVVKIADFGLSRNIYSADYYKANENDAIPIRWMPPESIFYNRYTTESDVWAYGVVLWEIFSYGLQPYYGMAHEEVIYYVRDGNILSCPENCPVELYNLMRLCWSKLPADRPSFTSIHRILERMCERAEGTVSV
Assay: Inhibition of MUSK (unknown origin) at 0.5 uM relative to control
Express your answer in %, writing the number without its unit.

Structure Notation: CNC(=O)c1cc(Oc2ccc(NC(=O)c3n[nH]nc3-c3ccc(F)cc3)cc2)ccn1
Quantity: inhibition
Unit Of Measurement: %
Meas Value: 25

Structure Notation: CNC(=O)c1cc(Oc2ccc(NC(=O)c3nc(C(F)(F)F)sc3-c3ccc(F)cc3)cc2)ccn1
Quantity: inhibition
Unit Of Measurement: %
Meas Value: 34

Structure Notation: CNC(=O)c1cc(Oc2ccc(NC(=O)c3nc(NC)sc3-c3ccc(F)cc3)cc2)ccn1
Quantity: inhibition
Unit Of Measurement: %
Meas Value: 51

Muscle, skeletal receptor tyrosine-protein kinase (Homo sapiens) (UniProt O15146) / inhibition / "CNC(=O)c1cc(Oc2ccc(NC(=O)c3nc(SC)n(CCN(C)C)c3-c3ccc(F)cc3)cc2)ccn1" : value?
29

Muscle, skeletal receptor tyrosine-protein kinase (Homo sapiens) (UniProt O15146) / inhibition / "CNC(=O)c1cc(Oc2ccc(NC(=O)c3nc(S(C)(=O)=O)sc3-c3ccc(F)cc3)cc2)ccn1" : value?
70

Muscle, skeletal receptor tyrosine-protein kinase (Homo sapiens) (UniProt O15146) / inhibition / "CNC(=O)c1cc(Oc2ccc(NC(=O)c3nc(SC)[nH]c3-c3ccc(F)cc3)cc2)ccn1" : value?
97
